Each entry below carries its recorded z-score.
# Method: basal HepG2 mitochondrial membrane potential changes, profiling panel, cell-based, JC-1 fluorescence, 24 h, 100 nL compound (AID 1167); further: test concentration not given here
# Condition notes: higher = more signal

Compound | z-score
COc1ccc(-c2ccccc2[C@@H]2N[C@H](C(=O)O)CC[C@H]2C)cc1 | 0.924
CO[C@@H]1COC(=O)[C@H](C)NC(=O)CC=C[C@@H](C)[C@H](OC)COC(=O)[C@H](C)NC(=O)CC=C[C@H]1C | 0.51
O=C(NCc1ccccc1)[C@@]1(Cc2ccccc2)COC(c2ccc(OCCCO)cc2)=N1 | -2.97
O=C(NCc1ccccc1)[C@@]1(CCS(=O)(=O)c2ccccc2)COC(c2ccc(OCCCO)cc2)=N1 | 1.61
COC(=O)c1c(CC[C@@H](CO)NC(=O)N[C@H](Cn2cc(-c3cncn3C)nn2)C(C)C)oc(C(C)=O)c1C(=O)OC | 0.57
O=C1O[C@H](c2ccccc2)[C@H](c2ccccc2)N2[C@H]1[C@@H](C(=O)NC[C@H](O)c1ccccc1)[C@]1(C(=O)Nc3ccc(C#CC4=CCCCC4)cc31)[C@H]2c1ccc(OCCO)cc1 | -2.36
CO[C@H]1COC(=O)[C@H](C)NC(=O)CC=C[C@@H](C)[C@H](NS(=O)(=O)c2ccc(C)cc2)COC(=O)CC=C[C@@H]1C | 0.645
C=C[C@H](OC)[C@@H](OC(=O)Nc1ccc(SC)cc1)c1ccc(O)c(F)c1 | -2.33
CCOC(=O)C1=CC[C@@H](c2ccccc2)N(S(=O)(=O)c2ccc(C)cc2)[C@H]1C | 3.96
CC1CC/C=C\[C@H]2OC34C=CCN(Cn5nnc6ccccc65)C(=O)[C@H]3N(C(C)CO)C(=O)[C@@H]4C2C(=O)O1 (stereo not given in full) | 0.236
CC[C@H]1C2=C3C(CC[C@H]4C(OC)OC[C@](C)([C@@H]34)N(C(=O)OC(C)(C)C)C2)C(CO)C1CO (stereo not given in full) | -0.528
CN(C)CCCC[C@@H]1NC(=O)[C@@H]2C[C@H](C(=O)NCCCCCNC(=O)CS)[C@H](c3ccc(O)cc3)N2C1=O | 1.61
CCOC(=O)C1=CCC(c2cccc3ccccc23)N(S(=O)(=O)c2ccc(C)cc2)C1 (stereo not given) | 1.98
Cc1ccc(S(=O)(=O)N2[C@@H](c3ccccc3)C(C(=O)O)=CC[C@H]2c2ccccc2)cc1 | -0.923
C[C@H]1C2[C@H](Cc3ccccc3)NC(=O)[C@]23C(=O)N[C@H](Cc2ccccc2)C(=O)N[C@@H](Cc2ccccc2)C(=O)NC/C=C\C/C=C/C3[C@@H]2O[C@]12C (stereo not given in full) | 1.24
